Reported inhibition of growth at 10 µM values for the following compounds.
# System: EKVX
# protocol: Growth inhibition of human EKVX cells at 10 uM incubated for 48 hrs by sulforhodamine B assay relative to control
# Type: functional
# condition: read-out: GI

[
  {
    "chemical structure": "COc1cc2nc(-c3ccc(Cl)cc3)cc(OCCCN3CCCC3)c2cc1OC",
    "inhibition of growth at 10 µM": "62%"
  },
  {
    "chemical structure": "COc1cc2nc(-c3ccc(C(F)(F)F)cc3)cc(OCCN3CCCC3)c2cc1OC",
    "inhibition of growth at 10 µM": "13%"
  },
  {
    "chemical structure": "COc1cc2nc(-c3ccc(C(F)(F)F)cc3)cc(OCCN3CCCCC3)c2cc1OC",
    "inhibition of growth at 10 µM": "13%"
  },
  {
    "chemical structure": "COc1cc2nc(-c3ccc(Cl)cc3)cc(OCCCN3CCCCC3)c2cc1OC",
    "inhibition of growth at 10 µM": "62%"
  },
  {
    "chemical structure": "COc1cc2nc(-c3ccc(C(F)(F)F)cc3)cc(OCCN3CCC(O)CC3)c2cc1OC",
    "inhibition of growth at 10 µM": "13%"
  },
  {
    "chemical structure": "COc1cc2nc(-c3cccs3)cc(OCCCN3CCC(O)CC3)c2cc1OC",
    "inhibition of growth at 10 µM": "20%"
  },
  {
    "chemical structure": "COc1cc2nc(-c3ccc(Cl)cc3)cc(OCCCN3CCC(O)CC3)c2cc1OC",
    "inhibition of growth at 10 µM": "62%"
  },
  {
    "chemical structure": "COc1cc2nc(-c3ccc(C(F)(F)F)cc3)cc(OCCN3CCOCC3)c2cc1OC",
    "inhibition of growth at 10 µM": "13%"
  },
  {
    "chemical structure": "COc1cc2nc(-c3ccc(Cl)cc3)cc(OCCN3CCOCC3)c2cc1OC",
    "inhibition of growth at 10 µM": "3%"
  },
  {
    "chemical structure": "COc1cc2nc(-c3ccc(Cl)cc3)cc(OCCCN3CCOCC3)c2cc1OC",
    "inhibition of growth at 10 µM": "62%"
  }
]

meta.source: ChEMBL document CHEMBL4732237
